Listing of recorded loss (decrease) of potency by entry.
- study-target: ChTS (Cryptosporidium parvum, UniProt Q27552)
- Sequence (Q27552 1-521): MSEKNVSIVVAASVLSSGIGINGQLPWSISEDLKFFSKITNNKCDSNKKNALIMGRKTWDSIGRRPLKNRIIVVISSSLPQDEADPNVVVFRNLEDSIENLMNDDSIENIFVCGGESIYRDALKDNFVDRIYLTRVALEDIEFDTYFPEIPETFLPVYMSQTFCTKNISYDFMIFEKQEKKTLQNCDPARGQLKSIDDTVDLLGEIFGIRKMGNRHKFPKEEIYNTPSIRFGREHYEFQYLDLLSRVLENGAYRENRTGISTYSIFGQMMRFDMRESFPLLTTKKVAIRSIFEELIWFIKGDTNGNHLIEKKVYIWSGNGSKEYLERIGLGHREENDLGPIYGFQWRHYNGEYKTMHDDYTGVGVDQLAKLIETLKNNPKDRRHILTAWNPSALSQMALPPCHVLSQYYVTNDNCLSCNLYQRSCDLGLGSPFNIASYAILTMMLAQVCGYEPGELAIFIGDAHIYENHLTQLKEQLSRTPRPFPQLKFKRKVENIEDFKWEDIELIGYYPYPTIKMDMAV
- Type: biochemical
- measurement-parameters: ChTS IC50 compared to compound 2
property-label: loss (decrease) of potency

- COc1ccc(C(=O)O)c(NC(=O)c2ccc(Cc3c[nH]c4nc(N)[nH]c(=O)c34)cc2)c1: ~ 2.5 fold
- Nc1nc2[nH]cc(Cc3ccc(C(=O)Nc4ccc(C(=O)O)cc4)cc3)c2c(=O)[nH]1: ~ 5 fold
- COCCOc1cc(OC)cc(-c2ccc(Cc3c[nH]c4nc(N)[nH]c(=O)c34)cc2)c1: ~ 5 fold
- Nc1nc2[nH]cc(Cc3ccc(C(=O)NC4CCCCC4C(=O)O)cc3)c2c(=O)[nH]1 (stereo not shown): 3 fold
- COCc1ccc(C(=O)O)c(NC(=O)c2ccc(Cc3c[nH]c4nc(N)[nH]c(=O)c34)cc2)c1: ~ 3.5 fold
- Nc1nc2[nH]cc(Cc3ccc(C(=O)Nc4ccccc4CCC(=O)O)cc3)c2c(=O)[nH]1: ~ 6 fold

----------
- study-target: ChTS (Cryptosporidium parvum)
- Assay type: biochemical
- measurement-parameters: ChTS IC50 compared to compound 2
property-label: loss (decrease) of potency

• CN(C(=O)c1ccc(Cc2c[nH]c3nc(N)[nH]c(=O)c23)cc1)c1ccccc1C(=O)O = ~ 11 fold
• Nc1nc2[nH]cc(Cc3ccc(/C=C/c4ccccc4C(=O)O)cc3)c2c(=O)[nH]1 = greater than 5 fold
• COCc1cccc(C(=O)O)c1NC(=O)c1ccc(Cc2c[nH]c3nc(N)[nH]c(=O)c23)cc1 = greater than 5 fold
• Nc1nc2[nH]cc(Cc3ccc(C(=O)Nc4cccc(C(=O)O)c4)cc3)c2c(=O)[nH]1 = ~ 5 fold
• Nc1nc2[nH]cc(Cc3ccc(C(=O)Nc4cc(CO)ccc4C(=O)O)cc3)c2c(=O)[nH]1 = ~ 9 fold
• COc1ccc(NC(=O)c2ccc(Cc3c[nH]c4nc(N)[nH]c(=O)c34)cc2)c(C(=O)O)c1 = greater than 5 fold
• Nc1nc2[nH]cc(Cc3ccc(C(=O)NCc4ccccc4C(=O)O)cc3)c2c(=O)[nH]1 = 6 fold
